The origin of these recorded values is ChEMBL document CHEMBL5500394.

Assay: Inhibition of schistosoma mansoni Sirt2 (21 to 322 residues) deacetylation expressed in Escherichia coli BL21 (DE3) using ZMAL as substrate incubated for 1 hr in presence of NAD+ by fluorescence based microplate reader assay
reported-property: IC50 (µM)

compound: CC(=O)Nc1ccc(-c2noc(CC3CCCN(Cc4cccc(F)c4C)C3)n2)cc1 (stereo unspecified)
assay-result: 14

---

Biological target: NAD-dependent protein deacetylase sirtuin-2 (Homo sapiens)
Sequence (Q8IXJ6 whole entry, the tested form may be a part): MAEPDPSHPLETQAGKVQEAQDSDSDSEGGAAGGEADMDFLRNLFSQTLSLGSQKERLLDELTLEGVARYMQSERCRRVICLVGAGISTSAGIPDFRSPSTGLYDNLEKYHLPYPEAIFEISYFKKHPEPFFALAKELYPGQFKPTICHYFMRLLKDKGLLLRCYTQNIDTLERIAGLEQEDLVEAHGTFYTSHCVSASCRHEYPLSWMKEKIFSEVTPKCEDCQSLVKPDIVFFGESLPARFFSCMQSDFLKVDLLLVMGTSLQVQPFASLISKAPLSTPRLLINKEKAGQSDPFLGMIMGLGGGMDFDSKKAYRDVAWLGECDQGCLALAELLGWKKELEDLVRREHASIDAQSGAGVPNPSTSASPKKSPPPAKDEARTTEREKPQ
Assay: Inhibition of recombinant human C-terminal His-tagged Sirt2 (50 to 356 residues) expressed in Escherichia coli using QPKKac as substrate

record-smiles: CCCCCCCCCCCCNC(=S)NCCCC[C@H](NS(C)(=O)=O)C(=O)N[C@@H](C)C(=O)N[C@@H](CCCNC(=N)N)C(N)=O
assayed-system: NAD-dependent protein deacetylase sirtuin-2 (Homo sapiens)
IC50: 40 nM
